- ASSAY SUMMARY: Inhibition of ADP-BODIPY binding to Thermotoga maritima HK853 after day 2 by fluorescence polarization assay
RECORDED METRIC: IC50 (µM)
Answers are plain numbers, in µM.

### Prompt Using the record for Fc1ccc(-c2c(-c3ccncc3)[nH]c3nccnc23)cc1 , report its IC50.
### Response 6.26

----------
- System: Thermotoga maritima
- ASSAY SUMMARY: Inhibition of ADP-BODIPY binding to Thermotoga maritima HK853 at 100 uM by fluorescence polarization assay
Classification field: condition met = inhibition at or over 70%; condition not met = inhibition under 70%.

Consider the following illustrative entries.
{"columns": ["COMPOUND", "LABEL CLASS"],
 "data": [
  ["Cn1cc(C2=C(c3cccc(NCC(O)CO)c3)C(=O)NC2=O)c2cc(Cl)ccc21 (stereo not drawn)", "condition met"],
  ["Fc1ccc(-c2c(-c3ccncc3)[nH]c3nccnc23)cc1", "condition met"],
  ["Fc1ccc(-c2c(-c3ccncc3)n(CCN3CCOCC3)c3cccnc23)cc1", "condition not met"],
  ["Cn1c(-c2ccncc2)c(-c2ccc(F)cc2)c2ncccc21", "condition not met"],
  ["CNc1ncc2cc(Oc3ccc(F)cc3F)c(=O)n(C)c2n1", "condition met"],
  ["Fc1ccc(-c2c(-c3ccncc3)[nH]c3cccnc23)cc1", "condition not met"]
]}

### Prompt Reported inhibition at or above 70%? O=[N+]([O-])c1ccc2c(c1)C(c1ccccc1Cl)=Nc1c[nH]nc1N2
### Response condition met

----------
- ASSAY SUMMARY: Inhibition of ADP-BODIPY binding to Thermotoga maritima HK853 in presence of Triton X-100 by fluorescence polarization assay
RECORDED METRIC: IC50 (µM)
One number for each entry, in µM.

Illustrative cases are given below, each with its answer.
{"columns": ["COMPOUND", "RECORDED METRIC", "NUMERIC RESULT"],
 "data": [
  ["Fc1ccc(-c2c(-c3ccncc3)[nH]c3nccnc23)cc1", "IC50", 22.5],
  ["COc1cc[nH]c1/C=C1\\C(=O)Nc2ccc([N+](=O)[O-])c(C3CC[C@@H](O)C3)c21 (some centres undefined)", "IC50", 13]
]}

State recorded IC50 for all listed compounds.
1. Cc1cc(C)c2c(n1)sc1c(N)ncnc12
2. CNc1ncc2cc(Oc3ccc(F)cc3F)c(=O)n(C)c2n1
3. Cn1cc(C2=C(c3cccc(NCC(O)CO)c3)C(=O)NC2=O)c2cc(Cl)ccc21 (centres undefined)
4. O=C1N=C(N[C@H](CO)c2ccccc2)S/C1=C\c1ccc2ncccc2c1
5. O=[N+]([O-])c1ccc2c(c1)C(c1ccccc1Cl)=Nc1c[nH]nc1N2

### Response
1. 42.2
2. 15.2
3. 24.4
4. 12
5. 160

### Prompt Using the record for CONC1=NC(=O)/C(=C/c2ccc3ncccc3c2)S1 , report its IC50.
### Response 27.1

----------
Please provide measured IC50 for the entries that follow.
- ASSAY SUMMARY: Inhibition of ADP-BODIPY binding to Thermotoga maritima HK853 by fluorescence polarization assay

Illustrative cases are given below, each with its answer.
{"columns": ["COMPOUND", "RESULT"],
 "data": [
  ["Cc1cc(C)c2c(n1)sc1c(N)ncnc12", "38.3 µM"],
  ["CNc1ncc2cc(Oc3ccc(F)cc3F)c(=O)n(C)c2n1", "19.1 µM"],
  ["O=C1C(c2c[nH]c3ccccc23)=C(c2c[nH]c3ccccc23)C(=O)N1O", "96 µM"]
]}

State recorded IC50 for all listed compounds.
1. O=[N+]([O-])c1ccc2c(c1)C(c1ccccc1Cl)=Nc1c[nH]nc1N2
2. COc1cc[nH]c1/C=C1\C(=O)Nc2ccc([N+](=O)[O-])c(C3CC[C@@H](O)C3)c21 (some centres undefined)
3. Fc1ccc(-c2c(-c3ccncc3)[nH]c3nccnc23)cc1
4. Cn1cc(C2=C(c3cccc(NCC(O)CO)c3)C(=O)NC2=O)c2cc(Cl)ccc21 (centres undefined)

### Response
26.2 µM
12 µM
23.7 µM
21.9 µM

State recorded IC50 for all listed compounds.
1. O=C1N=C(N[C@H](CO)c2ccccc2)S/C1=C\c1ccc2ncccc2c1
2. CONC1=NC(=O)/C(=C/c2ccc3ncccc3c2)S1

### Response
12 µM
21.6 µM
